system_name: Tyrosine-protein kinase JAK1 (Homo sapiens, UniProt P23458)
Sequence (P23458 whole entry): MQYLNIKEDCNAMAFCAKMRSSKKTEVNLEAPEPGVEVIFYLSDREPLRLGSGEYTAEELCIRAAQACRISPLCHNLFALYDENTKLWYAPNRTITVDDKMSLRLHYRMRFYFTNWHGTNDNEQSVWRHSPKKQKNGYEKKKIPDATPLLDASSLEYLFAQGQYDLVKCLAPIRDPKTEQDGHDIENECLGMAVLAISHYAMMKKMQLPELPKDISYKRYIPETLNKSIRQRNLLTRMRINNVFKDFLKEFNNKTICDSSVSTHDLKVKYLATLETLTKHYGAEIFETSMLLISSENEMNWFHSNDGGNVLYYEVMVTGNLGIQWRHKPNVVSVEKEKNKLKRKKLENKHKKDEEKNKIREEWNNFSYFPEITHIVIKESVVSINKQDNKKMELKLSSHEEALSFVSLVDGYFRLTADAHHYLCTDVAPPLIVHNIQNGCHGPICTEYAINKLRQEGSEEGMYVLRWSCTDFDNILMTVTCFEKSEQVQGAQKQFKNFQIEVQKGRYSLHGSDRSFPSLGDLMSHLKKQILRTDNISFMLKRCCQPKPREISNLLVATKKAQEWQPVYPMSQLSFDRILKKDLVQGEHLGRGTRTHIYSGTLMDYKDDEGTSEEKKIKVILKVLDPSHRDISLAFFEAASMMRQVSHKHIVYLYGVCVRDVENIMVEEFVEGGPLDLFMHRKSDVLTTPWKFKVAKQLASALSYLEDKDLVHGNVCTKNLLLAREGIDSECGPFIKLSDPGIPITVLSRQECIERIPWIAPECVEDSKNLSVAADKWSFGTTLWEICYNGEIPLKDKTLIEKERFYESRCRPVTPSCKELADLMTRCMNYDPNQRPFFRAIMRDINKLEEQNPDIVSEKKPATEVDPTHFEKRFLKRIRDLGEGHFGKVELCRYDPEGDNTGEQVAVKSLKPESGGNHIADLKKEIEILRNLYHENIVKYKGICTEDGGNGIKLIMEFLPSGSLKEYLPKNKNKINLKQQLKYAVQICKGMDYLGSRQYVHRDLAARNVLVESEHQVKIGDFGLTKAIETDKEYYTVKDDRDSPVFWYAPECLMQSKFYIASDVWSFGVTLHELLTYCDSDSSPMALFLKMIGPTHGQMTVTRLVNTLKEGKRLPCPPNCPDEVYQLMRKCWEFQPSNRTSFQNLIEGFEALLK
pIC50: −log10 of the molar value.
property_name: pIC50

What pIC50 value was documented for this molecule, COc1ccc(NC(=O)N2CCc3c(sc(NC(=O)c4cnn(C)c4)c3C#N)C2)cc1 ?
< 5.30

* * *

assay_procedure: MRT in rat at 10 mg/kg, po measured after 24 hrs by LC-MS/MS analysis
Assay type: ADME, organism-based
conditions_used: in vivo
property_name: MRT (h)
Give the number; h is assumed, so skip it.

What MRT value was documented for this compound, COc1ccc(NC(=O)N2CCc3c(sc(NC(=O)c4cnn(C)c4)c3C#N)C2)cc1 ?
12.1
